Each recorded value in this set is attributed to paper PMC10786891.

// reported Kd for each item listed
- test-target: T1, EsCas13d, nuclease-dead (Eubacterium siraeum, UniProt B0MS50, R295A;H300A;R849A;H854A)
- T1 sequence: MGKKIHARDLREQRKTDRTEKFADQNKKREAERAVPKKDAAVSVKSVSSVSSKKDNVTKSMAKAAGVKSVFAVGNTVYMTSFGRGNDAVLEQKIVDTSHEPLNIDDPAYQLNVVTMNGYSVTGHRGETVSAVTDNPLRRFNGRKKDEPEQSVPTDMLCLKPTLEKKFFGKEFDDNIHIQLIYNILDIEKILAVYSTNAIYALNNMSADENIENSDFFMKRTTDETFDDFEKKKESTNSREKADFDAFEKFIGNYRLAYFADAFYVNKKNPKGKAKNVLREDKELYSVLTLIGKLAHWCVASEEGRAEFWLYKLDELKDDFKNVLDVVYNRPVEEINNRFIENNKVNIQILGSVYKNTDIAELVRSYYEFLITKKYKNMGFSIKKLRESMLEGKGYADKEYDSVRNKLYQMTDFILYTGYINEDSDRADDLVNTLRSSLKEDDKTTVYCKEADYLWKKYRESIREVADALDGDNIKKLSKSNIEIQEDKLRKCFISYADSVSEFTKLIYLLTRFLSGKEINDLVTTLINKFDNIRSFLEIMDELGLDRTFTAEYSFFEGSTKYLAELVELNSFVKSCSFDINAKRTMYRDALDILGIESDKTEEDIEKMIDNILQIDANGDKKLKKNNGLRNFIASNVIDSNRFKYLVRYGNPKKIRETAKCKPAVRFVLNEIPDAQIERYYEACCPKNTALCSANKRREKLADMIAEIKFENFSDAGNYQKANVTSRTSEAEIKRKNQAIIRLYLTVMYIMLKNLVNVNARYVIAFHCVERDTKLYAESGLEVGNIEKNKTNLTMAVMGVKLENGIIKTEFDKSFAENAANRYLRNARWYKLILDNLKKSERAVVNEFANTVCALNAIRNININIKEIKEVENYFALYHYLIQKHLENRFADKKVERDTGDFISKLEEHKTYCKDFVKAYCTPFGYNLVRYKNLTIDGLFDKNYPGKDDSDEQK
- measurement-notes: crRNA (strand 1, pre-loaded); Mg2+; 40 mM Tris-HCl pH 7.5, 150 mM NaCl, 6 mM MgCl2, 1 mM DTT, 0.1% Tween-20, 0.2 mg/ml BSA; 25 C; 10 min per concentration, then washed
- reported-conditions: tags: His6-TwinStrep-SUMO cleaved; N-terminal SNAP kept (SNAP-Surface 488); label: 3' end held by stalled T7 RNA polymerase
Quick reminder: number only, in nM, skip the unit.

Example entries begin here.
>>> endpoint_result("target 3 C1G,G3C (mixed) RNA 1: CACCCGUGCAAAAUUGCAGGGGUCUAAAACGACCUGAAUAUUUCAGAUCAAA RNA 2: GGGAAUGGAUCCACAUCUACGAAUUCGUUUUUGAUCUGAAAUAUUCAGCUGUGCAGAUCGGAAGAGCACACGU")
26.5
>>> endpoint_result("target 1 MT 5'PFS GCC 3'PFS ACG (mixed) RNA 1: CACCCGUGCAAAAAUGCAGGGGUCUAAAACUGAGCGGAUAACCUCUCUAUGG RNA 2: GGGAAUGGAUCCACAUCUACGAAUUCGCCCCAUAGAGAGGUUAUCCGCUCAACGAGAUCGGAAGAGCACACGU")
13.9
>>> endpoint_result("target 1 MT 5'PFS CUG 3'PFS UAC (mixed) RNA 1: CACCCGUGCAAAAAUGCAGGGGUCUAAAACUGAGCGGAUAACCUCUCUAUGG RNA 2: GGGAAUGGAUCCACAUCUACGAAUUCCUGCCAUAGAGAGGUUAUCCGCUCAUACAGAUCGGAAGAGCACACGU")
4.1

API: the following record is the query input.
Kd reported for this binder target 1 insG 3' of 7,insG 3' of 4 (mixed) RNA 1: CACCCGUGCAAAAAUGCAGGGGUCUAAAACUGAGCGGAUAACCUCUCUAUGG RNA 2: GGGAAUGGAUCCACAUCUACGAAUUCGUACCAUAGAGAGGUUAUCGCGCGUCACCGAGAUCGGAAGAGCACACGU : 6.23
